# Measured Target: T1, Human Nectin-4 (residues Gly32-Ser349) with C-terminal FLAG tag, biotinylated (human, UniProt Q96NY8 32-349, randomly biotinylated with EZ-Link Sulfo-NHS-LC-LC-Biotin)
# T1 construct: range 32-349; Captured through biotin on a streptavidin CM5 chip in the SPR assay; also called PVRL4; not shown: C-terminal FLAG tag
# T1 sequence (looked up): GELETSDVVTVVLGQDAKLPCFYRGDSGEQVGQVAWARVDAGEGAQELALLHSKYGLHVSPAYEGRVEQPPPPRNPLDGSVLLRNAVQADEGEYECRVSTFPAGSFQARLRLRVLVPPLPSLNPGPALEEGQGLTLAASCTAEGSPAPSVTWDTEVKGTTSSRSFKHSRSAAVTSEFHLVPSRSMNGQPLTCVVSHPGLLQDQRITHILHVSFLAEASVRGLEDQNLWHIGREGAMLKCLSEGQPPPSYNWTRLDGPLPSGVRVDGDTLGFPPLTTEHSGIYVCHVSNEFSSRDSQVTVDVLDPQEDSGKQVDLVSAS
# Assay: SPR (Biacore), biotinylated human Nectin-4 on streptavidin chip
pKd: −log10 of the molar value. *1 amine or outer side, *2 acyl side, *3 side chain or, on linkers, in order; H or OH if unused. Bridges are numbered along the chain shown (N, C = ends). Where no end group is shown, it is not given here. [ ]: non-standard residue; d: D form. TATA = O=C(CC[*:1])N1CN(C(=O)CC[*:2])CN(C(=O)CC[*:3])C1; 1Nal = N[C@@H](Cc1cccc2ccccc12)C(=O)O; Cya = N[C@@H](CS(=O)(=O)O)C(=O)O; Hyp = O=C(O)[C@@H]1C[C@@H](O)CN1; dCya = N[C@H](CS(=O)(=O)O)C(=O)O; hArg = N=C(N)NCCCC[C@H](N)C(=O)O; βAla = NCCC(=O)O; Sar = CNCC(=O)O
Returns fulfilled if the recorded pKd is greater than or equal to 8, and not fulfilled otherwise.

Prompt line: # check: pKd of Ac-CP[1Nal][dD]CM[hArg]NWSTP[Hyp]WC (linker 1-5-15 via TATA, Bicyclic peptide cyclised with TATA) [BCY8124] is greater than or equal to 8
Response line: fulfilled

Prompt line: # check: pKd of ACPFGCMKNWSWPIWCA (linker 2-6-16 via TATA, Bicyclic peptide cyclised with TATA; also called 80-09-02-N002) [BCY428] is greater than or equal to 8
Response line: not fulfilled

Prompt line: # check: pKd of Ac-CP[1Nal][dR]CMPDWSTP[Hyp]WC (linker 1-5-15 via TATA, Bicyclic peptide cyclised with TATA) [BCY8193] is greater than or equal to 8
Response line: fulfilled

Prompt line: # check: pKd of Ac-CP[1Nal][dR]CL[hArg]DWSTP[Hyp]WC (linker 1-5-15 via TATA, Bicyclic peptide cyclised with TATA) [BCY8213] is greater than or equal to 8
Response line: fulfilled

Prompt line: # check: pKd of Ac-CPFGCMKNWSWPIWCTNK (linker 1-5-15 via TATA, Bicyclic peptide cyclised with TATA; also called 80-09-02-T01-N011) [BCY7391] is greater than or equal to 8
Response line: not fulfilled

Prompt line: # check: pKd of Ac-CPFGCMKNWSWPIWC (linker 1-5-15 via TATA, Bicyclic peptide cyclised with TATA; also called 80-09-02-N008) [BCY7390] is greater than or equal to 8
Response line: not fulfilled

Prompt line: # check: pKd of Ac-CP[1Nal][dR]CM[hArg]HWSTP[Hyp]WC (linker 1-5-15 via TATA, Bicyclic peptide cyclised with TATA) [BCY8129] is greater than or equal to 8
Response line: fulfilled

Prompt line: # check: pKd of [βAla][Sar][Sar][Sar][Sar][Sar][Sar][Sar][Sar][Sar][Sar]CP[1Nal][dD]CMKDWSTP[Hyp]WC (linker 12-16-26 via TATA, Bicyclic peptide cyclised with TATA) [BCY8238] is greater than or equal to 8
Response line: fulfilled

Prompt line: # check: pKd of {Ac-βAla}-[Sar][Sar][Sar][Sar][Sar][Sar][Sar][Sar][Sar][Sar]CP[1Nal][dCya]CM[Cya]DWSTP[Hyp]WC (linker 11-15-25 via TATA, Bicyclic peptide cyclised with TATA) [BCY8279] is greater than or equal to 8
Response line: fulfilled
